# Run Description: Pharmacokinetic study of LCA in mice brain tissues (non-compartmental analysis)
# Format: in vivo, Swiss albino mice
# Test Settings: male, Swiss albino, mouse, brain, ip, 20 mg/kg
Value Type: Tmax (h)
Give just the number in h; leave the unit off.

In: Tell me Tmax reported for `C=CC(C)(C)c1cc(/C=C/C(=O)c2ccc(O)cc2)c(OC)cc1O`
Out: 4

----------
# Run Description: Pharmacokinetic study of LCA in mice brain tissues (non-compartmental analysis)
# Format: in vivo, Swiss albino mice
# Test Settings: male, Swiss albino, mouse, brain, ip, 20 mg/kg; read-out: MRT0-t
Value Type: MRT last (h)
Provide the reading as a plain figure in h.

In: Give the reported MRT last for this molecule. `C=CC(C)(C)c1cc(/C=C/C(=O)c2ccc(O)cc2)c(OC)cc1O`
Out: 10.5
